# tested target: rsE-selectin (Homo sapiens)
# Sequence (P16581 22-556 limits assumed): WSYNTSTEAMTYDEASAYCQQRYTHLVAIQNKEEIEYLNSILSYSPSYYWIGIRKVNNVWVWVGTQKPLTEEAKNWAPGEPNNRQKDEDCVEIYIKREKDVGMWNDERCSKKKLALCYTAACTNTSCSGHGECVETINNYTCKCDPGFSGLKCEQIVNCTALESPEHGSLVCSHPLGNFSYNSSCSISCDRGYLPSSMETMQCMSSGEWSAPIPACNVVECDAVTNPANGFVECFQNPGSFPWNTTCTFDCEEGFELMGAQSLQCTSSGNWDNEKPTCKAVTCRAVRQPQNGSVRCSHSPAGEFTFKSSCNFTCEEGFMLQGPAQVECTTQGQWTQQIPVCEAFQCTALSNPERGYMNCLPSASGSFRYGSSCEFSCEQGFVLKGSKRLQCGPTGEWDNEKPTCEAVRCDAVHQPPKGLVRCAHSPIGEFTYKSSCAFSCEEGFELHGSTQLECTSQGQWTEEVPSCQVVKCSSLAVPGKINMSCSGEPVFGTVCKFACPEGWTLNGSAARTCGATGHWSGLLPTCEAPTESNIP
# protocol text: Inhibition of adhesion of HL-60 cells to plate-coated rsE-selectin (Experiment 2)
# Assay type: cell-based
# applied conditions: 50% inhibition concentration of adhesion of rsE-selectin to HL-60, from inhibition curves; medium-only well = 100%
# Experimental: The DPBS solution containing rsE-selectin (3 µg/ml) was added to a 96 well plate at 50 µl/well, while wells filled with DPBS without rsE-selectin (non-specific adhesion control) were prepared on the same plate, and the plate was kept at room temperature for 3 hours. […] The OD490 of each well was determined, and the OD490 value of the well for nonspecific adhesion was subtracted from the value of each well. […]
pIC50: −log10 of the molar value.
measurement kind: pIC50

molecule | measured value
COc1cc(CCCO[C@@H]2O[C@H](CO)[C@@H](O[C@@H]3O[C@H](CO)[C@H](O)[C@H](O[C@]4(C(=O)O)C[C@H](O)[C@@H](NC(C)=O)[C@H]([C@H](O)[C@H](O)CO)O4)[C@H]3O)[C@H](O[C@@H]3O[C@@H](C)[C@@H](O)[C@@H](O)[C@@H]3O)[C@H]2NC(=O)c2ccccc2)cc(OC)c1OC [Compound 41] | 3.96
COc1cc(CO[C@@H]2O[C@H](CO)[C@@H](O[C@@H]3O[C@H](CO)[C@H](O)[C@H](O[C@]4(C(=O)O)C[C@H](O)[C@@H](NC(C)=O)[C@H]([C@H](O)[C@H](O)CO)O4)[C@H]3O)[C@H](O[C@@H]3O[C@@H](C)[C@@H](O)[C@@H](O)[C@@H]3O)[C@H]2NC(=O)c2ccc3ccccc3c2)cc(OC)c1OC [Compound 15] | 3.96
CC(=O)N[C@H]1[C@H]([C@H](O)[C@H](O)CO)O[C@@](O[C@H]2[C@@H](O)[C@@H](CO)O[C@@H](O[C@H]3[C@H](O[C@@H]4O[C@@H](C)[C@@H](O)[C@@H](O)[C@@H]4O)[C@@H](NC(=O)c4ccc5ccccc5c4)[C@H](OCCCc4ccccc4)O[C@@H]3CO)[C@@H]2O)(C(=O)O)C[C@@H]1O [Compound 36] | 3.96

The origin of these recorded values is patent EP0801071A1.
